Experiment: Stat Signaling Pathway (AID 446);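 note: ME-180 cervical cancer cells given 40 pM IL-6 alongside compound; SIE-controlled beta-lactamase reporter measured as 460/530 nm FRET emission ratio; % is set by controls: 0 for no effect and ±100 for the full control effect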
Details: ME-180 SIE beta-lactamase reporter, IL-6 stimulated, 5 h; at 7.69 µM (top of the series) unless noted
Inconclusive results are not listed.
Readout Kind: activity, negative = inhibition (%)
Give the number; % is assumed, so skip it.

Reference set, count: 4
Nc1ncnc2nn([C@H]3O[C@@H](CO)[C@@H](O)[C@H]3O)nc12 :: -5.99
CC1(C)S[C@@H]2[C@H](NC(=O)C3(N)CCCCC3)C(=O)N2[C@@H]1C(=O)O :: 0.508
COc1ccc([C@H](O)c2ccccn2)cc1 :: 9.75
COc1ccc(NC(=S)Nc2ccccc2)cc1 :: 10.3

### Prompt Look at this compound and give its reported activity, negative = inhibition. `CN(C)Cc1cc(C(=O)O)cc(CN(C)C)c1O`
### Response -1.77

### Prompt What does the record list as activity, negative = inhibition for `NCCSCCC(=O)O` ?
### Response 0.279

### Prompt Given `O=C(N/N=C\c1cccc(O)c1)c1ccncc1` , state its recorded activity, negative = inhibition.
### Response 4.22

### Prompt Look up activity, negative = inhibition: `C[N+]1(C)CCO[C@](O)(c2ccccc2)C1`
### Response 6.89

### Prompt Value lookup for activity, negative = inhibition; key = `Nc1nc(SCC(=O)c2ccc(Br)cc2)c2[nH]cnc2n1`
### Response 1.94

### Prompt Report activity, negative = inhibition for `O=C(O)c1ccc(C(=O)c2ccccc2)c(C(=O)O)c1` please.
### Response 5.54

### Prompt I am curious: what activity, negative = inhibition value has been reported for `OC(Cc1cccnc1)(c1ccccc1)c1ccccc1` ?
### Response -5.74

### Prompt What does the record list as activity, negative = inhibition for `N#C/C(=C\Nc1ccccn1)C(=O)C1CC1` ?
### Response 1.86

====

Test system: JCK
Assay: qHTS profiling for inhibitors of Plasmodium falciparum proliferation (AID 504749); note: nearly all actives have a fitted effect of over 60% in size
Conditions: P. falciparum in erythrocytes, SYBR Green DNA, 72 h; series mostly up to 28.7 µM
Procedure: NIH National Institute of Allergy and Infectious Diseases [NIAID] NIH Chemical Genomics Center [NCGC] […] Because mature erythrocytes lack DNA, only Plasmodium-derived DNA is detected. NCGC Assay Protocol Summary: The SYBR Green viability assay was adapted from a method described previously (Plouffe et al., 2008). […] The following morning, fluorescence intensity at 485(14) nm excitation and 535(25) nm emission wavelengths was measured on an EnVision (Perkin Elmer) plate reader. […]
Inconclusive results are not listed. Calls of active or inactive are those of the source. Calls come from the whole dose curve; as a rule, active = well fitted inhibition curve with a large enough effect; inconclusive = small, poorly fitted or top-dose-only effect; inactive = flat fitted curve, though single readings scatter.
I would appreciate it if you answered using one of these outcomes: True (active), False (inactive)

Example entries begin here.
O=C(O)[C@@H](S)[C@H](S)C(=O)O :: True
OC[C@H](S)CS :: True

### Prompt Called result for `CO/N=C(\C(=O)N[C@@H]1C(=O)N2C(C(=O)[O-])=C(C[N+]3(C)CCCC3)CS[C@@H]12)c1csc(N)n1`
### Response False

====

Experiment: Cell Viability - LYMP2-023 (AID 975);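 note: cellular ATP measured by luciferase luminescence as viability proxy; cells exposed to compound for 24 hours at 37 °C; plate controls were DMSO only for no effect and 92 µM tetraoctylammonium bromide control for full effect; nearly all actives have a fitted effect of over 55% in size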
Conditions: LYMP2-023 lymphoblastoid cell viability; series mostly up to 92.2 µM
Inconclusive results are not listed. The source made the active and inactive calls. Calls come from the whole dose curve; as a rule, active = well fitted cell-killing curve with a large enough effect; inconclusive = small, poorly fitted or top-dose-only effect; inactive = flat fitted curve, though single readings scatter.
Readout Kind: outcome

CCC(Cl)CC(Cl)C(Cl)C(Cl)C(Cl)C(C)Cl (stereo not drawn) :: inactive
O=[N+]([O-])c1cc(Cl)c(Cl)c(Cl)c1Cl :: inactive
CCCCCCCCC1CO1 (stereo not drawn) :: inactive

====

Potency listing for selected compounds.
Target: Lysosomal acid glucosylceramidase (Homo sapiens) (UniProt P04062)
Sequence (P04062 whole entry, looked up): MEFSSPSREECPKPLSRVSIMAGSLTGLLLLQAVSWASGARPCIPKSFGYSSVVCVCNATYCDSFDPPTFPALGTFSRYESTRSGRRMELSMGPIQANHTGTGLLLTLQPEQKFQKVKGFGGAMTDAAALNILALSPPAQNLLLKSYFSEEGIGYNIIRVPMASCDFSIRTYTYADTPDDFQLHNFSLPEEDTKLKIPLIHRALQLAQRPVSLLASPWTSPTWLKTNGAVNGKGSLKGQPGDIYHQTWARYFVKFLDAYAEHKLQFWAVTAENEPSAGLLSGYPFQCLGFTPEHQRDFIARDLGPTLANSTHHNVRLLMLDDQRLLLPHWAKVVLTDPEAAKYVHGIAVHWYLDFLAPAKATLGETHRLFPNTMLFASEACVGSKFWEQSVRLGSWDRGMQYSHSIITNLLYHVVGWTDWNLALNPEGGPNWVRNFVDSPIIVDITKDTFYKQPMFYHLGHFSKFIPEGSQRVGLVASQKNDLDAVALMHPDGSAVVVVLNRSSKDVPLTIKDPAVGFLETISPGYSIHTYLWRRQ
Assay: Glucocerebrosidase-p2 (AID 348); note: potency is the fitted concentration of half-maximal effect
Conditions: purified GBA, blue fluorogenic substrate, 40 min
Excerpt: Beta-glucocerebrosidase catalyzes the hydrolysis of beta-glucocerebroside to glucose and ceramide. The inherited deficiency of beta-glucocerebrosidase results in Gaucher disease, which is characterized by a wide variety of symptoms including hepatosplenomegaly, anemia, thrombocytopenia, bony lesions and bone marrow infiltration with characteristic storage cells, known as Gaucher cells. […] Blue fluorescence substrate assay: […] Read the plate in Viewlux plate reader (Ex=365(10) and Em=440(10)).
Calls of active or inactive are those of the source. Cut-off read from the data, not from the text of the source: active = potency below about 10 µM; inactive = the rest.

CC(C)(CO)N1CCN(C(=S)Nc2ccccc2)CC1 :: > 11.4 µM (inactive)

### Prompt Item `CC(C)(C)c1ccc(OCC(=O)O)c(Cl)c1` has what recorded Potency?
### Response > 11.4 µM (inactive)

### Prompt Endpoint output: Potency of `CN1CCc2ccccc2[C@@H]1Cc1ccccc1NC(=O)c1sc2ccccc2c1Cl` . Value?
### Response > 11.4 µM (inactive)

### Prompt Fill blank: measured Potency of the compound `O=[N+]([O-])c1ccc(S(=O)(=O)Cc2ccccc2)c2nonc12` is ____.
### Response > 11.4 µM (inactive)

### Prompt Record request: Potency value, item `CN1CCN(CCCN)CC1`
### Response > 11.4 µM (inactive)

### Prompt Fill in: Potency of `Clc1ccc(CN2CCCN(Cc3ccc(Cl)cc3)C2c2cc3ccccc3c3ccccc23)cc1` is ___
### Response > 11.4 µM (inactive)

### Prompt Look at this compound and give its reported Potency. `CN(C)S(=O)(=O)c1nc(Cl)c2[nH]cnc2n1`
### Response > 11.4 µM (inactive)

### Prompt For `C[C@]1(O)CC[C@H]2[C@H]3CC=C4N5CCN=C5CC[C@@]4(C)[C@H]3CC[C@@]21C` , what is its reported Potency?
### Response > 11.4 µM (inactive)

### Prompt # input compound: `COC(=O)CCCC(=O)O` ; wanted: its Potency
### Response > 11.4 µM (inactive)

====

Target: DNA repair nuclease/redox regulator APEX1 (Homo sapiens) (UniProt P27695)
Sequence (P27695 whole entry, looked up): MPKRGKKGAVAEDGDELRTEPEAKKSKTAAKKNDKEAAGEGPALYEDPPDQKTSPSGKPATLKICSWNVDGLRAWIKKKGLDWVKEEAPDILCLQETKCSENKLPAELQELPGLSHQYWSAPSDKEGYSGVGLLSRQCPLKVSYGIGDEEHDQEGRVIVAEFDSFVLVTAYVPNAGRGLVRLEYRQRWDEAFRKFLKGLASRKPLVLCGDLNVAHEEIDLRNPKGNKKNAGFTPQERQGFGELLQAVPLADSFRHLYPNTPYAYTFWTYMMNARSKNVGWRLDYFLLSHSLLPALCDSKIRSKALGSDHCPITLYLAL
Assay: Confirmation qHTS Assay for Inhibitors of the Human Apurinic/apyrimidinic Endonuclease 1 (APE1) (AID 2572); note: nearly all actives have a fitted effect of over 30% in size
Settings: purified APE1, fluorogenic abasic-site DNA cleavage; series mostly up to 57.1 µM
This is one part of the list. Records with an inconclusive call do not appear. Calls of active or inactive are those of the source. Calls come from the whole dose curve; as a rule, active = well fitted inhibition curve with a large enough effect; inconclusive = small, poorly fitted or top-dose-only effect; inactive = no such curve, though single readings can be large or run the other way.
Pick from T = active, F = inactive when you respond.

// known answers, use as guide
Cc1cc(C)c2nc(-c3ccco3)cc(C(=O)O)c2c1 :: T
CC(C)(C)C(=O)OCc1nc(-c2ccc(O)c(O)c2)cs1 :: T
O=C(NCc1ccccn1)c1ccc2nc(-c3ccco3)c(-c3ccco3)nc2c1 :: T

Now look at this entry.
### Prompt // return assay outcome for CC(=O)NS(=O)(=O)c1ccc(NC(=O)C2C3C=CC(C3)C2C(=O)O)cc1 (centres undefined)
### Response F

====

Tested on: P93_24
Experiment: qHTS profiling for inhibitors of Plasmodium falciparum proliferation (AID 504749); note: nearly all actives have a fitted effect of over 60% in size
Conditions: P. falciparum in erythrocytes, SYBR Green DNA, 72 h; series mostly up to 28.7 µM
Inconclusive results are not listed. Calls of active or inactive are those of the source. The call rests on the fitted dose curve; in most records, active means well fitted inhibition curve with a large enough effect; inconclusive means small, poorly fitted or top-dose-only effect; inactive means flat fitted curve, though single readings scatter.
Please answer using one outcome listed in class 1 for active, class 0 for inactive

Here's what some known entries look like.
C[C@H](CCC(=O)O)[C@H]1CC[C@@H]2[C@H]3[C@@H](C[C@@H](O)[C@]21C)[C@]1(C)CC[C@H](O)C[C@@H]1C[C@@H]3O :: class 0
C[N+]1(C)[C@@H]2CC(OC(=O)[C@@H](CO)c3ccccc3)C[C@@H]1[C@H]1O[C@H]12 (stereo partly drawn) :: class 0
CC(C)(C)c1ccc(CN2CCN([C@H](c3ccccc3)c3ccc(Cl)cc3)CC2)cc1 :: class 1

Shifting focus to the compound that follows.
### Prompt Hi team, can someone confirm the assay call for `CN(C)[C@H]1C(=O)C(C(=O)NCN2CCCC2)=C(O)[C@]2(O)C(=O)C3=C(O)c4c(O)cccc4[C@](C)(O)[C@H]3C[C@H]12` ?
### Response class 0

====

Test: qHTS Assay for Identification of Small Molecule Agonists for Hypoxia Response Element Signaling Pathway (AID 914); note: % of control where 0% means no effect
Conditions: ME-180 (cervical carcinoma) HRE-bla reporter, beta-lactamase ratio, CoCl2, 17 h; hits give high values
Text: NIH Molecular Libraries Screening Centers Network [MLSCN] NIH Chemical Genomics Center [NCGC] Hypoxia-inducible factor-1 (HIF-1) is the major hypoxia-regulated transcription factor that controls cellular responses to low oxygen concentration. HIF-1 is composed of two subunits: hypoxia responsive HIF-1 alpha and constitutively expressed HIF-1 beta, which is also known as aryl hydrocarbon receptor nuclear translocator. […]
Results filed as inconclusive are left out.
// activation lookup, one value per entry
Give the value, in units of %, as a plain number.

Nc1ncnc2c1ncn2[C@@H]1CCCO1 :: -13.1
O=C(O)/C=C\c1cnc[nH]1 :: -4.56

### Prompt What value of activation has been recorded for this entry: `Cn1cnc([N+](=O)[O-])c1Sc1nc(N)nc2c1ncn2Cc1ccccc1`
### Response -1.88

### Prompt Quick check: activation of `Clc1ccccc1/C=C\c1ccnc2ccccc12` ?
### Response -24.5

### Prompt Which measured activation value corresponds to `O[C@H](C[C@@H]1CCCCN1)c1ccc2c(c1)oc1ccccc12` ?
### Response -0.884

### Prompt # lookup: activation of `O=C1c2ccccc2-c2ccc(NC(=O)[C@H]3CCCC[C@@H]3C(=O)O)cc21`
### Response -7.45

### Prompt Sample `O=C(O)CCCc1ccc2ccccc2c1` — what was its activation?
### Response -6.23
